# Test system: A498
# test: minimum viability across doses, drug + dasatinib, relative to DMSO (fraction); higher = less growth inhibition
# protocol conditions: treatment: drug + dasatinib (fixed dose, not stated); 5 days
measure name: minimum viability across doses
One number for each entry.

Worked examples follow.
[
  {
    "compound": "COc1ccc(-c2ccc3ncc4c(c3c2)n(-c2ccc(N3CCNCC3)c(C(F)(F)F)c2)c(=O)n4C)cn1.O=C(O)/C=C\\C(=O)O [NVP-BGT226] + Cc1nc(Nc2ncc(C(=O)Nc3c(C)cccc3Cl)s2)cc(N2CCN(CCO)CC2)n1",
    "reported": 0.0127
  },
  {
    "compound": "O=C1c2ccccc2-c2n[nH]c3cccc1c23 + Cc1nc(Nc2ncc(C(=O)Nc3c(C)cccc3Cl)s2)cc(N2CCN(CCO)CC2)n1",
    "reported": 0.693
  },
  {
    "compound": "Cc1c(CN2CCN(C(=O)[C@H](C)O)CC2)sc2c(N3CCOCC3)nc(-c3cnc(N)nc3)nc12 [GDC-0980 (RG7422)] + Cc1nc(Nc2ncc(C(=O)Nc3c(C)cccc3Cl)s2)cc(N2CCN(CCO)CC2)n1",
    "reported": 0.17
  }
]

Take each entry in turn and give its minimum viability across doses.
1. Cc1[nH]c(/C=C2/C(=O)Nc3ccc(S(=O)(=O)N(C)c4cccc(Cl)c4)cc32)c(C)c1C(=O)N1CCN(C)CC1 + Cc1nc(Nc2ncc(C(=O)Nc3c(C)cccc3Cl)s2)cc(N2CCN(CCO)CC2)n1
2. Nc1nccc(Oc2ccc(NC(=O)c3c[nH]cc(-c4ccc(F)cc4)c3=O)cc2F)c1Cl + Cc1nc(Nc2ncc(C(=O)Nc3c(C)cccc3Cl)s2)cc(N2CCN(CCO)CC2)n1
3. CC1(C)CNc2cc(NC(=O)c3cccnc3NCc3ccncc3)ccc21.O=P(O)(O)O.O=P(O)(O)O [Motesanib Diphosphate] + Cc1nc(Nc2ncc(C(=O)Nc3c(C)cccc3Cl)s2)cc(N2CCN(CCO)CC2)n1
4. CC(C)(C)c1cc(NC(=O)Nc2ccc(-c3cn4c(n3)sc3cc(OCCN5CCOCC5)ccc34)cc2)no1 [Quizartinib (AC220)] + Cc1nc(Nc2ncc(C(=O)Nc3c(C)cccc3Cl)s2)cc(N2CCN(CCO)CC2)n1

1. 0.605
2. 0.617
3. 0.877
4. 0.115

---

# System: 769-P
# test: AUC of dose-response viability curve, drug + dasatinib, normalised to DMSO (arbitrary (AUC of normalised viability)); higher = less growth inhibition
# protocol conditions: treatment: drug + dasatinib (fixed dose, not stated); 5 days
So I've got a bunch of compounds here, and I need their AUC of dose-response viability curve values.
Give bare numbers.

Worked examples follow.
[
  {
    "compound": "CC(C)n1nc(-c2ccc3oc(N)nc3c2)c2c(N)ncnc21 [INK 128] + Cc1nc(Nc2ncc(C(=O)Nc3c(C)cccc3Cl)s2)cc(N2CCN(CCO)CC2)n1",
    "AUC of dose-response viability curve": 0.95
  },
  {
    "compound": "Nc1ccc(C(=O)Nc2cccc(-c3nc(N4CCOCC4)c4oc5ncccc5c4n3)c2)cn1 + Cc1nc(Nc2ncc(C(=O)Nc3c(C)cccc3Cl)s2)cc(N2CCN(CCO)CC2)n1",
    "AUC of dose-response viability curve": 1.99
  },
  {
    "compound": "Oc1cc(O)cc(/C=C/c2ccc(O)c(O)c2)c1 [Piceatannol] + Cc1nc(Nc2ncc(C(=O)Nc3c(C)cccc3Cl)s2)cc(N2CCN(CCO)CC2)n1",
    "AUC of dose-response viability curve": 1.97
  }
]

Take each entry in turn and give its AUC of dose-response viability curve.
1. O=c1[nH]c2ccc(Cl)cc2c(N[C@@H]2CN3CCC2CC3)c1-c1nc2ccccc2[nH]1 [CHIR-124] + Cc1nc(Nc2ncc(C(=O)Nc3c(C)cccc3Cl)s2)cc(N2CCN(CCO)CC2)n1
2. CS(=O)(=O)O.N#CC1(c2ccc(NC(=O)c3cccnc3NCc3ccncc3)cc2)CCCC1 [Apatinib (YN968D1)] + Cc1nc(Nc2ncc(C(=O)Nc3c(C)cccc3Cl)s2)cc(N2CCN(CCO)CC2)n1
3. COc1ccc(-c2cc3c(C)nc(N)nc3n([C@H]3CC[C@H](OCCO)CC3)c2=O)cn1 + Cc1nc(Nc2ncc(C(=O)Nc3c(C)cccc3Cl)s2)cc(N2CCN(CCO)CC2)n1
4. Cc1cc(Nc2nc(N[C@@H](C)c3ccc(F)cc3)c(C#N)cc2F)n[nH]1 [AZ 960] + Cc1nc(Nc2ncc(C(=O)Nc3c(C)cccc3Cl)s2)cc(N2CCN(CCO)CC2)n1

1: 1.31; 2: 2.43; 3: 1.37; 4: 1.77
